test-target: GST-Rok-C97-191 (Bacillus subtilis subsp. subtilis str. …, UniProt O34857 97-191)
Sequence: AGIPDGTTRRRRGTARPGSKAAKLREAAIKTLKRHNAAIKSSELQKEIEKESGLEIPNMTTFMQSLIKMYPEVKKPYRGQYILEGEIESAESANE
method-notes: protein binding microarray; high values mean tight binding
recorded-conditions: protein: recombinant; tags: GST (pTH5325, pDEST15-Magic modified); dsDNA, one strand shown
In all, about 33,000 sequences were measured (“e-score”: median about -0.038, highest 2% from about 0.33 on). The list comes from a sample in which the highest values are over-represented; it also holds close analogues and randomly drawn sequences.
test-readout: binding signal (E-score)

sequence-entry	units-text	observed-result
ATTAACTC	E-score	0.124
TCCCTAAA	E-score	-0.186
GTATTCGA	E-score	0.15
ACTAGTCT	E-score	0.215
GACTCGTA	E-score	-0.148
ATTAACTA	E-score	0.367
ACTAGTAA	E-score	0.423
CCTAGTAC	E-score	0.0475
GTTAACTA	E-score	0.376
CCTAGTAA	E-score	0.145
ACCAGTAT	E-score	0.196
TCATACCA	E-score	0.0725
TCGGTCAA	E-score	0.044
CGACCAGC	E-score	-0.129
ACTAGTCG	E-score	0.181

###

test-target: GST-Rok-C97-191 (Bacillus subtilis subsp. subtilis str. …, UniProt O34857 97-191)
Sequence: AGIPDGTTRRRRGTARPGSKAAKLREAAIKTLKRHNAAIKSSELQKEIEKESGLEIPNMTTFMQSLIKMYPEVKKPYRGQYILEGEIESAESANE
method-notes: protein binding microarray; high values mean tight binding
recorded-conditions: protein: recombinant; tags: GST (pTH5325, pDEST15-Magic modified); dsDNA, one strand shown
In all, about 33,000 sequences were measured (“e-score”: median about -0.038, highest 2% from about 0.33 on). The list comes from a sample in which the highest values are over-represented; it also holds close analogues and randomly drawn sequences.
param class (str): category from binding signal; see ranges Low = under 0.1 E-score, Mid = from 0.1 E-score up to 0.3 E-score, High = 0.3 E-score and over

sequence-entry	assigned-label
AATATTGT	High
AATATTCT	High
GTAGAAAC	High
GTAATATA	High
AACCTCAA	Low
AAAACTGT	Low
CAGGAATG	Low
CCGTAGAA	Mid
AAAACTCC	Mid
CTAGAAAC	High
ATAATATG	Mid
CTTGTATA	Mid
CTAGTATC	Mid
AAAACTTG	Low
AAATTTGG	Low
GAAGCCGA	Low
CAAGAAAC	Mid
GTAATACA	Mid
GTAGTATA	High
AAAACTGG	Low
ACAATATA	High
AAATTTAC	High

###

test-target: GST-Rok-C97-191 (Bacillus subtilis subsp. subtilis str. …, UniProt O34857 97-191)
Sequence: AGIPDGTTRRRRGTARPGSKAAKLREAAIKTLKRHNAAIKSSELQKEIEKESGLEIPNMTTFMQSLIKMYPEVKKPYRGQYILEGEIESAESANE
method-notes: protein binding microarray; high values mean tight binding
recorded-conditions: protein: recombinant; tags: GST (pTH5325, pDEST15-Magic modified); dsDNA, one strand shown
In all, about 33,000 sequences were measured (“e-score”: median about -0.038, highest 2% from about 0.33 on). Many of the other results were omitted from the sample, so the highest values are more common in it than they were.
Assign labels as follows, please: label 1 for binding signal below 0.06 E-score; label 0 for binding signal equal to or exceeding 0.06 E-score.

sequence-entry	assigned-label
CAATTCTA	label 0
ATGGAAAG	label 1
AAAATTAC	label 0
AAGTTTCC	label 0
CGGCACTA	label 0
ACGGTAGC	label 0
ATTACTGC	label 0
ACTAAACC	label 1
GTGCGGGA	label 1
AAGAATCT	label 0
ATTTGCTG	label 1
TCCATTCA	label 1
TGAATTAA	label 0
CAAGACTA	label 0
CTGCTCCA	label 1
GAATTCTA	label 0
AAGGTAGC	label 0
AGTTATAC	label 0
CGTCATAC	label 1
ATTCAGTC	label 1
CTTATGTA	label 1
ATTTATAC	label 0
ATGACGGG	label 1
CTAAAGTC	label 0
CCTGTCCC	label 1
GCATCAAC	label 1
AAGAGAGC	label 1
ACTATGTA	label 0
TAAACGCA	label 1
ATTATGTA	label 0
CTTTATAC	label 0
AGTTGCCA	label 0
AATAAAAA	label 0
AACCGGTT	label 0
GTTCCTGA	label 1
GAAATTGC	label 0
CCACGCTC	label 1
AAATTCTC	label 1
ACACACCC	label 1
AGTTTGTA	label 0
ATACGTAA	label 0
CATCCCTA	label 1
CGTGTAGC	label 1
GCAAATAA	label 0
GAAATTAC	label 0
ACGGTAGT	label 0
AAAGGATG	label 1
ACTAGAAA	label 0
GTACCTAA	label 0
TCATGGAA	label 1
CTACCTAG	label 0
ATACCTAT	label 0
CTACCTAA	label 0
GAAACTCC	label 1
CTCCACTA	label 0
GAGCTTGA	label 1
ACATTTGC	label 0
AACTATAA	label 0
ATTTTGTA	label 0
CAAATTAC	label 0
TTCTTCAA	label 1
CTACCTAC	label 0
CGACCGGA	label 1
ACGGTAGA	label 0
CGATAAGC	label 1
ATTACTAA	label 0
AAGGCAGC	label 1
GCCTTCGC	label 1
ATTACTAC	label 0
GGTTCAAC	label 1
GATTTGTA	label 0
GAATCGCC	label 1
GTTATTAA	label 0
GGGCATAC	label 1
AAGGTAGT	label 0
GCGGCCAA	label 1
GGTAAATA	label 0
CGTTTGTA	label 0
ACCCGCTA	label 1
ATTACTCG	label 0

###

test-target: GST-Rok-C97-191 (Bacillus subtilis subsp. subtilis str. …, UniProt O34857 97-191)
Sequence: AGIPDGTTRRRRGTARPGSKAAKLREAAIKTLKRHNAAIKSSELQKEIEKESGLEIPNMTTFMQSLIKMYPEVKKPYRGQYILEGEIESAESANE
method-notes: protein binding microarray; high values mean tight binding
recorded-conditions: protein: recombinant; tags: GST (pTH5325, pDEST15-Magic modified); dsDNA, one strand shown
Whole data set: some 33,000 sequences, median “e-score” near -0.038, cut for the highest 2% near 0.33. Only a selection was taken, and the highest values are over-represented in it overall.
Returns Criterion met if the recorded binding signal is greater than or equal to 0.2 E-score, and Criterion not met otherwise.

sequence-entry	test-target	assigned-label
ATCTATAG	GST-Rok-C97-191 (Bacillus subtilis subsp. subtilis str. …, UniProt O34857 97-191)	Criterion met
GACTAAAA	GST-Rok-C97-191 (Bacillus subtilis subsp. subtilis str. …, UniProt O34857 97-191)	Criterion not met
TACTAAAA	GST-Rok-C97-191 (Bacillus subtilis subsp. subtilis str. …, UniProt O34857 97-191)	Criterion met
AAGTATAA	GST-Rok-C97-191 (Bacillus subtilis subsp. subtilis str. …, UniProt O34857 97-191)	Criterion not met
TAATATAA	GST-Rok-C97-191 (Bacillus subtilis subsp. subtilis str. …, UniProt O34857 97-191)	Criterion met
CAGTATAA	GST-Rok-C97-191 (Bacillus subtilis subsp. subtilis str. …, UniProt O34857 97-191)	Criterion met
CTTGAAGA	GST-Rok-C97-191 (Bacillus subtilis subsp. subtilis str. …, UniProt O34857 97-191)	Criterion not met
TGATATAA	GST-Rok-C97-191 (Bacillus subtilis subsp. subtilis str. …, UniProt O34857 97-191)	Criterion met
GGATATAA	GST-Rok-C97-191 (Bacillus subtilis subsp. subtilis str. …, UniProt O34857 97-191)	Criterion met
CTTACGGC	GST-Rok-C97-191 (Bacillus subtilis subsp. subtilis str. …, UniProt O34857 97-191)	Criterion not met

###

test-target: GST-Rok-C97-191 (Bacillus subtilis subsp. subtilis str. …, UniProt O34857 97-191)
Sequence: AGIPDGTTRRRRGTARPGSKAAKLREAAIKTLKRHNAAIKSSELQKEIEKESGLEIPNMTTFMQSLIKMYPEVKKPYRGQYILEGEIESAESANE
method-notes: protein binding microarray; Rok is a gene silencer of Bacillus subtilis; high values mean tight binding
recorded-conditions: protein: recombinant; tags: GST (pTH5325, pDEST15-Magic modified); dsDNA, one strand shown
Over roughly 33,000 sequences, “e-score” has its median near -0.038; the highest 2% begin near 0.33. This is one part of a sample in which the highest values are shown more often than they occur.
Here the recorded binding signal is given for each entry.

sequence-entry	binding signal [E-score]
GTAGATAA	0.397
GAAGATAA	0.224
ACTAAATG	0.226
GACCTTGC	-0.129
GTAGATAC	0.381
ACTAAAAA	0.26
CGCCAGCG	-0.123
AGCTTTCG	-0.16
